Data provenance: paper PMC6637745

biological target: mGluR; experiment: NIMH-PDSP binding affinity panel; conditions: read-out: affinity, metabotropic glutamate receptors
measureName: Ki

Reported Ki for COc1ccc(N(C)c2nc(C)nc3ccccc23)cc1 was > 10 µM

----------
molecular target: α1A-1C; assay: NIMH-PDSP binding affinity panel; conditions: read-out: affinity
measureName: Ki

Reported Ki for COc1ccc(N(C)c2nc(C)nc3ccccc23)cc1 was > 10 µM

----------
target: SERT (Homo sapiens)
Sequence (P31645 whole entry, species assumed): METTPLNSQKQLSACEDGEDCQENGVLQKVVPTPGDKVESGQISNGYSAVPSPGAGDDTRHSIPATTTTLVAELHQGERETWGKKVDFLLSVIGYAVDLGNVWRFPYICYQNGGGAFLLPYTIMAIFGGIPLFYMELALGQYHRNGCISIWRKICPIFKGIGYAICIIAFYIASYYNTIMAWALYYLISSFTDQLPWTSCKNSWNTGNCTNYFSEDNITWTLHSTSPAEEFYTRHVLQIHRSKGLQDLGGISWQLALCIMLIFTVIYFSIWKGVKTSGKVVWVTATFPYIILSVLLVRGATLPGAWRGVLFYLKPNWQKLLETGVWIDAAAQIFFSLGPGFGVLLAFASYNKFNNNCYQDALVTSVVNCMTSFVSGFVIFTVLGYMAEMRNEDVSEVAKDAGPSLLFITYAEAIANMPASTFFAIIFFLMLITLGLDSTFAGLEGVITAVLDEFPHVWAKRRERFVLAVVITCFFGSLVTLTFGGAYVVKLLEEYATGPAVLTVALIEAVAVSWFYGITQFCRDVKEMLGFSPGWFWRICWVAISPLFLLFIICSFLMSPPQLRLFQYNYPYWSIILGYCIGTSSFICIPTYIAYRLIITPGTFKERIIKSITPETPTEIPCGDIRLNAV
measureName: Ki

Reported Ki for COc1ccc(N(C)c2nc(C)nc3ccccc23)cc1 was > 10 µM
